Ref: patent US9212153B2

measured.on: truncated human beta-secretase (residues 1-458, His6-tagged at the C-terminus) (Homo sapiens (Human))
experiment.summary: BACE enzyme assay (fluorescence quench, Example 434A)
Assay type: biochemical
measurement.type: pIC50
Answer as the number alone; pIC50 is minus log10 of concentration in mol/L.

CN1OC2(N=C1N)c1cc(Br)ccc1C[C@@]21C[C@@H]1c1ccccc1 (some centres unmarked) [Compound 460]
5.01

Consider now this further compound.
Req: Which pIC50 reading was recorded for the compound COC1CCC2(CC1)Cc1ccc(-c3cccnn3)cc1C21N=C(N)N(C)O1 (centres unmarked) [Compound 107] ?
Resp: 6.64

###

measured.on: truncated human beta-secretase (residues 1-458, His6-tagged at the C-terminus) (Homo sapiens (Human), UniProt P56817)
Sequence (P56817 22-458): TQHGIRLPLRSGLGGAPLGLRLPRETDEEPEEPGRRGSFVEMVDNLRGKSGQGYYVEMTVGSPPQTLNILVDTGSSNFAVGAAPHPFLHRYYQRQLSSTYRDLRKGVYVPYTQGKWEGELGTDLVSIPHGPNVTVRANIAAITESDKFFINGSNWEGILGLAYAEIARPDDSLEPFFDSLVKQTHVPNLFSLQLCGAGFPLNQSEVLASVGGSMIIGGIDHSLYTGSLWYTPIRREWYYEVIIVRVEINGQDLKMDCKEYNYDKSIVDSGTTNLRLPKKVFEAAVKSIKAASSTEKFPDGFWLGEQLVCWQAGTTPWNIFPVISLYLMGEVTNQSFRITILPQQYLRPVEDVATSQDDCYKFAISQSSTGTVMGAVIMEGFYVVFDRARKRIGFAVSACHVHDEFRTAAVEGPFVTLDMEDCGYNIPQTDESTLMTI
experiment.summary: BACE enzyme assay (fluorescence quench, Example 434A)
Assay type: biochemical
assay.setup: footnote a: determined according to protocols described in Example 434A
pIC50: −log10 of the molar value.
The threshold is inclusive: pIC50 of exactly 7 counts as Fulfilled; values below receive Not fulfilled.

CN1OC2(N=C1N)c1cc(-c3cccc(C#N)c3)ccc1CC21CCS(=O)(=O)CC1 (stereo not drawn) [Compound 459]
Not fulfilled
CN1C(=O)C2(N=C1N)c1cc(-c3cccc(C#N)c3)ccc1CC21Cc2cnncc2C1 (stereo not drawn) [Compound 471]
Not fulfilled
CN1OC2(C=C1N)c1cc(-c3cccc(C#N)c3)ccc1CC21CCCc2ccccc2C1 (stereo not drawn) [Compound 46]
Not fulfilled
COC1CCC2(CC1)Cc1ccc(C#CC3CC3)cc1C21C=C(N)N(C)O1 (stereo not drawn) [Compound 3]
Fulfilled

Req: Determine whether this molecule has pIC50 no lower than 7: Cc1onc2c1CC1(CC2)Cc2ccc(Br)cc2C12N=C(N)N(C)C2=O (stereo not drawn) [Compound 461]
Resp: Fulfilled
